Would you kindly list Activity for each of these compounds?
- System: luciferase reporter construct containing a UGA premature termination codon stably transfected in 293T Human Embryonic Kidney cells
- PROTOCOL_SUMMARY: cell-based luciferase reporter assay (nonsense suppression)
- CONDITION_NOTES: UGA premature termination codon luciferase reporter in 293T cells; gentamicin internal standard; qualitative potency/efficacy of protein synthesis
Answer with a bare number; do not write a unit.

Data request, read-out Activity, for COC(=O)c1c(Cl)ncnc1N[C@@H]1O[C@H](CO)[C@@H](O)[C@H]1O
0

Also COc1ccc([N+](=O)[O-])c(N[C@@H]2O[C@H](CO)[C@@H](O)[C@H]2O)n1 ?
0

Try the compound O=[N+]([O-])c1c(NCCO)ncnc1N[C@@H]1O[C@H](CO)[C@@H](O)[C@H]1O
0

Numbers sourced from patent US7291603B2.
